assay: Measurement of particle size distribution (sieving); assay type: physicochemical; settings: sieve fraction <300 μm
Particle size distribution <300 μm overview
measured.parameter: Particle size distribution <300 μm (weight %)

compound	meas.value
O=C(O)[C@H](O)c1ccccc1Cl [Example 6, (R)-2-chloromandelic acid]	19.0
O=C(O)[C@H](O)c1ccccc1Cl [Example 3, (R)-2-chloromandelic acid]	16.6
O=C(O)[C@H](O)c1ccccc1Cl [compound 2, (R)-2-chloromandelic acid, reference compound]	24.6
O=C(O)[C@H](O)c1ccccc1Cl [compound 1, (R)-2-chloromandelic acid, reference compound]	46.2

====

assay: Measurement of compression rate; type: physicochemical; conditions: (volume 1−volume 2)/volume 1

compound	Compression rate
O=C(O)[C@H](O)c1ccccc1Cl [Example 1, (R)-2-chloromandelic acid]	0.03
O=C(O)[C@H](O)c1ccccc1Cl [compound 2, (R)-2-chloromandelic acid, reference compound]	0.62
O=C(O)[C@H](O)c1ccccc1Cl [Example 5, (R)-2-chloromandelic acid]	0.03
O=C(O)[C@H](O)c1ccccc1Cl [Example 2, (R)-2-chloromandelic acid]	0.03
